Assay: Pharmacokinetics in male Sprague Dawley rats (intravenous and oral)
Type: in vivo, rat
Conditions: rat, blood; male Sprague Dawley rats; single bolus oral dose of 10 mg/kg
Description: Table 6 provides the pharmacokinetic parameters of Example (I) in male Sprague Dawley rats after a single bolus intravenous dose of 2 mg/kg. […] These parameters are then analyzed by non-compartmental or compartmental methods to give a calculated percentage bioavailability, for an example of this type of method see Gallant-[…] et al, 2000 and […] et al, 1998, and references therein.
observable: AUC(0-t)

[[record]]
substance_smiles = "CO[C@H]1C[C@@H]2CC[C@@H](C)[C@@](O)(O2)C(=O)C(=O)N2CCCC[C@H]2C(=O)O[C@H]([C@H](C)C[C@H]2C[C@H]3C[C@@H]2C[C@@H]3O)CC(=O)[C@H](C)/C=C(\\C)[C@@H](O)[C@@H](OC)C(=O)[C@H](C)C[C@H](C)/C=C/C=C/C=C/1C"
result = "1720 ng·h/mL"


====

Experiment: Pharmacokinetics in male Sprague Dawley rats (intravenous and oral)
Format: in vivo, rat
Conditions: rat, blood; male Sprague Dawley rats; single bolus intravenous dose of 2 mg/kg
observable: half-life (h)

[[record]]
molecule = "CO[C@H]1C[C@@H]2CC[C@@H](C)[C@@](O)(O2)C(=O)C(=O)N2CCCC[C@H]2C(=O)O[C@H]([C@H](C)C[C@H]2C[C@H]3C[C@@H]2C[C@@H]3O)CC(=O)[C@H](C)/C=C(\\C)[C@@H](O)[C@@H](OC)C(=O)[C@H](C)C[C@H](C)/C=C/C=C/C=C/1C [Formula II]"
observable = "half-life"
readout_number = 2.57


====

Test: Pharmacokinetics in male Sprague Dawley rats (intravenous and oral)
Type: in vivo, rat
Conditions: rat, blood; male Sprague Dawley rats; single bolus oral dose of 10 mg/kg; read-out: MRT 0-inf_obs
observable: MRT inf (h)

[[record]]
substance_smiles = "CO[C@H]1C[C@@H]2CC[C@@H](C)[C@@](O)(O2)C(=O)C(=O)N2CCCC[C@H]2C(=O)O[C@H]([C@H](C)C[C@H]2C[C@H]3C[C@@H]2C[C@@H]3O)CC(=O)[C@H](C)/C=C(\\C)[C@@H](O)[C@@H](OC)C(=O)[C@H](C)C[C@H](C)/C=C/C=C/C=C/1C"
observable = "MRT inf"
units_of_measure = "h"
readout_number = 7.37


====

Experiment: Pharmacokinetics in male Sprague Dawley rats (intravenous and oral)
Format: in vivo, rat
Settings: male, Sprague Dawley, rat, blood, po, 10 mg/kg, male Sprague Dawley rats; single bolus oral dose of 10 mg/kg; read-out: % F
Protocol: Table 6 provides the pharmacokinetic parameters of Example (I) in male Sprague Dawley rats after a single bolus intravenous dose of 2 mg/kg. […] These parameters are then analyzed by non-compartmental or compartmental methods to give a calculated percentage bioavailability, for an example of this type of method see Gallant-[…] et al, 2000 and […] et al, 1998, and references therein.
observable: bioavailability (%)

[[record]]
molecule = "CO[C@H]1C[C@@H]2CC[C@@H](C)[C@@](O)(O2)C(=O)C(=O)N2CCCC[C@H]2C(=O)O[C@H]([C@H](C)C[C@H]2C[C@H]3C[C@@H]2C[C@@H]3O)CC(=O)[C@H](C)/C=C(\\C)[C@@H](O)[C@@H](OC)C(=O)[C@H](C)C[C@H](C)/C=C/C=C/C=C/1C [Formula II]"
readout_number = 47


====

Experiment: Pharmacokinetics in male Sprague Dawley rats (intravenous and oral)
Assay type: in vivo, rat
Conditions: rat, blood; male Sprague Dawley rats; single bolus intravenous dose of 2 mg/kg
Procedure: Table 6 provides the pharmacokinetic parameters of Example (I) in male Sprague Dawley rats after a single bolus intravenous dose of 2 mg/kg. […] These parameters are then analyzed by non-compartmental or compartmental methods to give a calculated percentage bioavailability, for an example of this type of method see Gallant-[…] et al, 2000 and […] et al, 1998, and references therein.
observable: C0 (ng/mL)

[[record]]
substance_smiles = "CO[C@H]1C[C@@H]2CC[C@@H](C)[C@@](O)(O2)C(=O)C(=O)N2CCCC[C@H]2C(=O)O[C@H]([C@H](C)C[C@H]2C[C@H]3C[C@@H]2C[C@@H]3O)CC(=O)[C@H](C)/C=C(\\C)[C@@H](O)[C@@H](OC)C(=O)[C@H](C)C[C@H](C)/C=C/C=C/C=C/1C"
observable = "C0"
readout_number = 1560


====

Assay: Pharmacokinetics in male Sprague Dawley rats (intravenous and oral)
Assay type: in vivo, rat
Details: rat, blood; male Sprague Dawley rats; single bolus oral dose of 10 mg/kg; read-out: AUC 0-infinity_observed
observable: AUC (ng·h/mL)

[[record]]
compound = "CO[C@H]1C[C@@H]2CC[C@@H](C)[C@@](O)(O2)C(=O)C(=O)N2CCCC[C@H]2C(=O)O[C@H]([C@H](C)C[C@H]2C[C@H]3C[C@@H]2C[C@@H]3O)CC(=O)[C@H](C)/C=C(\\C)[C@@H](O)[C@@H](OC)C(=O)[C@H](C)C[C@H](C)/C=C/C=C/C=C/1C [Formula II]"
observable = "AUC"
readout_number = 1820


====

Assay: Pharmacokinetics in male Sprague Dawley rats (intravenous and oral)
Format: in vivo, rat
Settings: rat, blood; male Sprague Dawley rats; single bolus intravenous dose of 2 mg/kg; read-out: Tmax (time maximum blood conc.)
observable: Tmax (min)

[[record]]
compound = "CO[C@H]1C[C@@H]2CC[C@@H](C)[C@@](O)(O2)C(=O)C(=O)N2CCCC[C@H]2C(=O)O[C@H]([C@H](C)C[C@H]2C[C@H]3C[C@@H]2C[C@@H]3O)CC(=O)[C@H](C)/C=C(\\C)[C@@H](O)[C@@H](OC)C(=O)[C@H](C)C[C@H](C)/C=C/C=C/C=C/1C [Formula II]"
readout_number = 2


====

Assay: Whole blood concentrations in mice after IP dosing (LC-MS/MS)
Format: in vivo, mouse
Settings: mouse, whole blood, intraperitoneal, 2 mg/kg, 2 mg/kg IP QD × 3 days; Day 3; 1.00 hrs; animals 7, 8, 9; read-out: Formula II Concentrations in Mouse Whole Blood, individual animals
observable: concentration at 1 h (ng/mL)

[[record]]
compound = "CO[C@H]1C[C@@H]2CC[C@@H](C)[C@@](O)(O2)C(=O)C(=O)N2CCCC[C@H]2C(=O)O[C@H]([C@H](C)C[C@H]2C[C@H]3C[C@@H]2C[C@@H]3O)CC(=O)[C@H](C)/C=C(\\C)[C@@H](O)[C@@H](OC)C(=O)[C@H](C)C[C@H](C)/C=C/C=C/C=C/1C [Formula II]"
readout_number = 628

